The values you see were collected from paper PMC3326337.

# Measurement target: His-CRP (cAMP receptor protein) (Escherichia coli, UniProt P0ACJ8 1-210)
# Sequence (P0ACJ8 whole entry): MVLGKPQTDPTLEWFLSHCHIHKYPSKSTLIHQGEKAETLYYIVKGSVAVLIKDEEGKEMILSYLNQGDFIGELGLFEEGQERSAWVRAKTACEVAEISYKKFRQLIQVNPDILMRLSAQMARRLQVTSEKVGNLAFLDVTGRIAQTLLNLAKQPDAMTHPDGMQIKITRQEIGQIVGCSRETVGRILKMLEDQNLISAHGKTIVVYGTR
# Assay explanation: EMSA

{"Binder": "ICAP oligo (vl1427/vl1428) (dsDNA) DNA 1: GCAACGCAATAAATGTGATCTAGATCACATTTTAGGCACCC DNA 2: GGGGTGCCTAAAATGTGATCTAGATCACATTTATTGCGTTG", "Kd": "0.081 nM"}
